experiment: Soluble peptide degradation, Cells condition (LC-MS); format: in vitro ADME, human; conditions: human, cells or culture medium; Figure 3B heatmap; split-and-pool libraries KLVADX1X2ASAE in media on hUVECs; 24 h; LC-MS, ratio to βFβA6; N = 2; read-out: Fraction of peptide remaining after 24 hours: hUVEC Cells
Where a SMILES comes first, the peptide text is derived from it. [ ]: non-standard residue; d: D form. βAla = NCCC(=O)O

COMPOUND	remaining at 24 h, %
CC(=O)NCCC(=O)N[C@@H](CCCCN)C(=O)N[C@@H](CC(C)C)C(=O)N[C@H](C(=O)N[C@@H](C)C(=O)N[C@@H](CC(=O)O)C(=O)N[C@@H](CC(N)=O)C(=O)N1CCC[C@H]1C(=O)N[C@@H](C)C(=O)N[C@@H](CO)C(=O)N[C@@H](C)C(=O)N[C@@H](CCC(=O)O)C(=O)NCCC(N)=O)C(C)C [Asn-Pro] (Ac-[βAla]KLVADNPASAE[βAla]-NH2)	91

====

assay: Soluble peptide degradation, Media condition (cell-conditioned media, LC-MS); type: in vitro ADME, human; details: human, cells or culture medium
Where a SMILES comes first, the peptide text is derived from it. [ ]: non-standard residue; d: D form. βAla = NCCC(=O)O

COMPOUND	remaining at 24 h, 50 µM, %
CSCC[C@H](NC(=O)[C@H](CC(C)C)NC(=O)[C@H](CC(=O)O)NC(=O)[C@H](C)NC(=O)[C@@H](NC(=O)[C@H](CC(C)C)NC(=O)[C@H](CCCCN)NC(=O)CCNC(C)=O)C(C)C)C(=O)N[C@@H](C)C(=O)N[C@@H](CO)C(=O)N[C@@H](C)C(=O)N[C@@H](CCC(=O)O)C(=O)NCCC(N)=O [KLVAD-LM] (Ac-[βAla]KLVADLMASAE[βAla]-NH2)	93

====

assay: Soluble peptide degradation, Media condition (cell-conditioned media, LC-MS); format: in vitro ADME, human; settings: human, hUVEC-conditioned media without cells, no exogenous MMP-14; Figure 7 study; 24 h, LC-MS, N = 3 with technical triplicates; read-out: peptide remaining in hUVEC conditioned media without exogenous MMP-14
Where a SMILES comes first, the peptide text is derived from it. [ ]: non-standard residue; d: D form. βAla = NCCC(=O)O

COMPOUND	remaining at 24 h, 50 µM
CC[C@H](C)[C@H](NC(=O)CNC(=O)[C@H](CCC(N)=O)NC(=O)[C@@H]1CCCN1C(=O)CNC(=O)CCNC(C)=O)C(=O)N[C@@H](Cc1c[nH]c2ccccc12)C(=O)NCC(=O)N[C@@H](CCC(N)=O)C(=O)NCCC(N)=O [PanMMP, reference compound] (Ac-[βAla]GPQGIWGQ[βAla]-NH2)	78%

====

Below is a list of entries, each paired with its recorded remaining at 24 h, 50 µM value.
tested on: MMP-14; experiment: Soluble peptide degradation, Cells condition (LC-MS); format: in vitro ADME, human; details: human, with NSC 405 020 (MMP-14 inhibitor); Figure 3C; 50 µM peptide, media on hUVECs with MMP-14 inhibitor NSC 405 020 10 µM; 24 h; LC-MS; N = 6; read-out: Fraction of peptide remaining after 24 hours: hUVEC +Inhibitor
Where a SMILES comes first, the peptide text is derived from it. [ ]: non-standard residue; d: D form. βAla = NCCC(=O)O
MEASUREMENT_LABEL: remaining at 24 h, 50 µM (%)

COMPOUND	UOM	VAL
CC[C@H](C)[C@H](NC(=O)CNC(=O)[C@H](CCC(N)=O)NC(=O)[C@@H]1CCCN1C(=O)CNC(=O)CCNC(C)=O)C(=O)N[C@@H](Cc1c[nH]c2ccccc12)C(=O)NCC(=O)N[C@@H](CCC(N)=O)C(=O)NCCC(N)=O [PanMMP, reference compound] (Ac-[βAla]GPQGIWGQ[βAla]-NH2)	%	95
CC(=O)NCCC(=O)N[C@@H](CCCCN)C(=O)N[C@@H](CC(C)C)C(=O)N[C@H](C(=O)N[C@@H](C)C(=O)N[C@@H](CC(=O)O)C(=O)N1CCC[C@H]1C(=O)N[C@@H](Cc1ccc(O)cc1)C(=O)N[C@@H](C)C(=O)N[C@@H](CO)C(=O)N[C@@H](C)C(=O)N[C@@H](CCC(=O)O)C(=O)NCCC(N)=O)C(C)C [KLVAD-PY] (Ac-[βAla]KLVADPYASAE[βAla]-NH2)	%	100
CC(=O)NCCC(=O)N[C@@H](CCCCN)C(=O)N[C@@H](CC(C)C)C(=O)N[C@H](C(=O)N[C@@H](C)C(=O)N[C@@H](CC(=O)O)C(=O)N[C@@H](Cc1ccc(O)cc1)C(=O)N[C@@H](Cc1c[nH]c2ccccc12)C(=O)N[C@@H](C)C(=O)N[C@@H](CO)C(=O)N[C@@H](C)C(=O)N[C@@H](CCC(=O)O)C(=O)NCCC(N)=O)C(C)C [KLVAD-YW] (Ac-[βAla]KLVADYWASAE[βAla]-NH2)	%	98
CC(=O)NCCC(=O)N[C@@H](CCCCN)C(=O)N[C@@H](CC(C)C)C(=O)N[C@H](C(=O)N[C@@H](C)C(=O)N[C@@H](CC(=O)O)C(=O)N[C@@H](CC(N)=O)C(=O)N[C@@H](Cc1ccc(O)cc1)C(=O)N[C@@H](C)C(=O)N[C@@H](CO)C(=O)N[C@@H](C)C(=O)N[C@@H](CCC(=O)O)C(=O)NCCC(N)=O)C(C)C [KLVAD-NY] (Ac-[βAla]KLVADNYASAE[βAla]-NH2)	%	98

// data source = paper PMC12683216
